Molecular target: Integrin alpha-4/beta-1 (Homo sapiens, UniProt P05556+P13612, T112H)
Assay: Jurkat Cell Adhesion Inhibition Assay
*1 amine or outer side, *2 acyl side, *3 side chain or, on linkers, in order; H or OH if unused. Where a SMILES comes first, the peptide text is derived from it. [ ]: non-standard residue; d: D form. The star is where a group is joined. ξ: configuration not given here. X7 = O=C(c1ccc(-c2cccc(N[*:1])c2)o1)[*:2]; X1 = O=C(Cc1ccc(N[*:1])cc1)[*:2]; Ile(3ξ) = CCC(C)[C@H](N)C(=O)O; NH(2-Me-phenyl) = Cc1ccccc1N*; Nle = CCCC[C@H](N)C(=O)O; Ac3c = NC1(C(=O)O)CC1; X11 = CC(C)c1ccccc1N*; CO = O=C([*:1])[*:2]
endpoint.label: IC50 (nM)

# molecule, measurement.units, IC50
rows = [
    ("CCCC[C@H](NC(=O)c1ccc(-c2cccc(NC(=O)Nc3ccccc3C)c2)o1)C(=O)N[C@@H](CC(=O)O)C(=O)N[C@H](C(=O)N1CCC[C@H]1C(N)=O)C(C)CC (stereo partly drawn) ({NH(2-Me-phenyl)-CO}-[X7][Nle]D[Ile(3ξ)]P-NH2)", "nM", 325),
]

P = CCCC[C@H](NC(=O)Cc1ccc(NC(=O)Nc2ccccc2C)cc1)C(=O)N[C@@H](CC(=O)O)C(=O)NC1(C(=O)N2CCC[C@H]2C(N)=O)CC1 ({NH(2-Me-phenyl)-CO}-[X1][Nle]D[Ac3c]P-NH2)
Q = CCCC[C@H](NC(=O)Cc1ccc(NC(=O)Nc2ccccc2C(C)C)cc1)C(=O)N[C@@H](CC(=O)O)C(=O)N[C@H](C(=O)N1CCC[C@H]1C(N)=O)C(C)CC (stereo partly drawn) ({X11-CO}-[X1][Nle]D[Ile(3ξ)]P-NH2)
Between P and Q , whose measured IC50 reads higher? Mark your selection by writing its label.
Q
(Q: 531 nM, P: 9.2 nM)

---

Target: Integrin alpha-4/beta-1 (Homo sapiens, UniProt P05556+P13612, T112H)
Assay: Jurkat Cell Adhesion Inhibition Assay
pIC50: −log10 of the molar value. *1 amine or outer side, *2 acyl side, *3 side chain or, on linkers, in order; H or OH if unused. Where a SMILES comes first, the peptide text is derived from it. [ ]: non-standard residue; d: D form. The star is where a group is joined. ξ: configuration not given here. X2 = O=C(/C=C/c1ccc(N[*:1])cc1)[*:2]; X1 = O=C(Cc1ccc(N[*:1])cc1)[*:2]; Ile(3ξ) = CCC(C)[C@H](N)C(=O)O; NH(2-Me-phenyl) = Cc1ccccc1N*; Nle = CCCC[C@H](N)C(=O)O; Dap = NC[C@H](N)C(=O)O; CO = O=C([*:1])[*:2]; Butyryl = CCCC(=O)*
endpoint.label: pIC50

1 = CCCC[C@H](NC(=O)/C=C/c1ccc(NC(=O)Nc2ccccc2C)cc1)C(=O)N[C@@H](CC(=O)O)C(=O)N[C@H](C(=O)N1CCC[C@H]1C(N)=O)C(C)CC (some centres not stated) ({NH(2-Me-phenyl)-CO}-[X2][Nle]D[Ile(3ξ)]P-NH2)
2 = CCCC(=O)NC[C@H](NC(=O)Cc1ccc(NC(=O)Nc2ccccc2C)cc1)C(=O)N[C@@H](CC(=O)O)C(=O)N[C@H](C(=O)N1CCC[C@H]1C(N)=O)C(C)CC (some centres not stated) ({NH(2-Me-phenyl)-CO}-[X1][Dap](Butyryl)D[Ile(3ξ)]P-NH2)
Between 1 and 2 , whose measured pIC50 reads higher? Mark your selection by writing its label.
1
(1: 8.36, 2: 6.86)

---

Target: Integrin alpha-4/beta-1 (Homo sapiens, UniProt P05556+P13612, T112H)
Assay: Jurkat Cell Adhesion Inhibition Assay
Details: pH 7.5; 22 °C
pIC50: −log10 of the molar value. *1 amine or outer side, *2 acyl side, *3 side chain or, on linkers, in order; H or OH if unused. Where a SMILES comes first, the peptide text is derived from it. [ ]: non-standard residue; d: D form. The star is where a group is joined. ξ: configuration not given here. X1 = O=C(Cc1ccc(N[*:1])cc1)[*:2]; Ile(3ξ) = CCC(C)[C@H](N)C(=O)O; NH(2-Me-phenyl) = Cc1ccccc1N*; β3hP = O=C(O)C[C@@H]1CCCN1; Nle = CCCC[C@H](N)C(=O)O; CO = O=C([*:1])[*:2]
endpoint.label: pIC50

# molecule, pIC50
records = [
    ("CCCC[C@H](NC(=O)Cc1ccc(NC(=O)Nc2ccccc2C)cc1)C(=O)N[C@@H](CC(=O)O)C(=O)N[C@H](C(=O)Nc1cccc(C(N)=O)c1)C(C)CC (stereo not given in full)", 8.48),
    ("CCCC[C@H](NC(=O)Cc1ccc(NC(=O)Nc2ccccc2C)cc1)C(=O)N[C@@H](CC(=O)O)C(=O)N[C@H](C(=O)N1CCC(C(N)=O)CC1)C(C)CC (stereo not given in full)", 8.48),
    ("CCCC[C@H](NC(=O)Cc1ccc(NC(=O)Nc2ccccc2C)cc1)C(=O)N[C@@H](CC(=O)O)C(=O)N[C@H](C(=O)N1CCC[C@H]1CC(N)=O)C(C)CC (stereo partly drawn) ({NH(2-Me-phenyl)-CO}-[X1][Nle]D[Ile(3ξ)][β3hP]-NH2)", 8.51),
    ("CCCC[C@H](NC(=O)Cc1ccc(NC(=O)Nc2ccccc2C)cc1)C(=O)N[C@@H](CC(=O)O)C(=O)N[C@H](C(=O)N1CSC[C@H]1C(N)=O)C(C)CC (stereo not given in full)", 8.51),
    ("CCCC[C@H](NC(=O)Cc1ccc(NC(=O)Nc2ccccc2C)cc1)C(=O)N[C@@H](CC(=O)O)C(=O)N[C@H](C(=O)N1CC(O)C[C@H]1C(N)=O)C(C)CC (stereo not given in full)", 8.52),
]

---

Target: Integrin alpha-4/beta-1 (Homo sapiens, UniProt P05556+P13612, T112H)
Test: Jurkat Cell Adhesion Inhibition Assay
Conditions: pH 7.5; 22 °C
pIC50: −log10 of the molar value.
endpoint.label: pIC50

The examples below pair each entry with its known result.
# compound, quantitative.result
measured = [
    ("CCCC[C@H](NC(=O)Cc1ccc(NC(=O)Nc2ccccc2C)cc1)C(=O)N[C@@H](CC(=O)O)C(=O)N[C@H](C(=O)NC1CC[C@@H]2SC[C@@H](C(N)=O)N2C1=O)[C@@H](C)CC (some centres not stated)", 8.47),
    ("CCCC[C@H](NC(=O)Cc1ccc(NC(=O)Nc2ccccc2C)cc1)C(=O)N[C@@H](CC(=O)O)C(=O)N[C@H](C(=O)N1CCC2(CC1)C(=O)N(CC(N)=O)CN2c1ccccc1)C(C)CC (some centres not stated)", 7.54),
    ("CCCC[C@H](NC(=O)Cc1ccc(NC(=O)Nc2ccccc2C)cc1)C(=O)N[C@@H](CC(=O)O)C(=O)N[C@H](C(=O)N1CCC[C@@H]1C(N)=O)C(C)CC (some centres not stated)", 8.54),
    ("CCCC[C@H](NC(=O)Cc1ccc(NC(=O)Nc2ccccc2C)cc1)C(=O)N[C@@H](CC(=O)O)C(=O)N[C@H](C(=O)N1CCCC(C(N)=O)C1)C(C)CC (some centres not stated)", 8.40),
    ("CCCC[C@H](NC(=O)Cc1ccc(NC(=O)Nc2ccccc2C)cc1)C(=O)N[C@@H](CC(=O)O)C(=O)N[C@H](C(=O)N1CCCC[C@@H]1C(N)=O)C(C)CC (some centres not stated)", 8.52),
]

P = CCCC[C@H](NC(=O)Cc1ccc(NC(=O)Nc2ccccc2C)cc1)C(=O)N[C@@H](CC(=O)O)C(=O)N[C@H](C(=O)N1CSC[C@@H]1C(N)=O)C(C)CC (some centres not stated)
Q = CCCC[C@H](NC(=O)Cc1ccc(NC(=O)Nc2ccccc2C)cc1)C(=O)N[C@@H](CC(=O)O)C(=O)N[C@H](C(=O)N1CC(OCc2ccccc2)C[C@H]1C(N)=O)C(C)CC (some centres not stated)
Between P and Q , whose measured pIC50 reads higher? Mark your selection by writing its label.
P

---

Molecular target: Integrin alpha-4/beta-1 (Homo sapiens, UniProt P05556+P13612, T112H)
Test: Jurkat Cell Adhesion Inhibition Assay
Details: pH 7.5; 22 °C
Description: Binding affinities (IC50) of the ligands were studied in a Jurkat cell adhesion assay by inhibiting the alpha-4/beta-1 mediated cell adhesion to CS-1 peptides. The 96-well plates were coated with neutravidin, followed by biotinconjugated CS-1 peptides. […] Bound cells were recorded using a 96-well plate reader at 570 nm. IC50 values were calculated from inhibition curves resulting from the concentration-dependent inhibition
*1 amine or outer side, *2 acyl side, *3 side chain or, on linkers, in order; H or OH if unused. Where a SMILES comes first, the peptide text is derived from it. [ ]: non-standard residue; d: D form. The star is where a group is joined. ξ: configuration not given here. Pro(5R-Ph) = O=C(O)[C@@H]1CC[C@H](c2ccccc2)N1; X1 = O=C(Cc1ccc(N[*:1])cc1)[*:2]; Ile(3ξ) = CCC(C)[C@H](N)C(=O)O; NH(2-Me-phenyl) = Cc1ccccc1N*; Nle = CCCC[C@H](N)C(=O)O; CO = O=C([*:1])[*:2]
endpoint.label: IC50 (nM)

The examples below pair each entry with its known result.
# compound, measurement.units, IC50
data = [
    ("CCCC[C@H](NC(=O)Cc1ccc(NC(=O)Nc2ccccc2C)cc1)C(=O)N[C@@H](CC(=O)O)C(=O)N[C@H](C(=O)NC1CCCC1C(N)=O)C(C)CC (stereo not given in full)", "nM", 3.4),
    ("CCCC[C@H](NC(=O)Cc1ccc(NC(=O)Nc2ccccc2C)cc1)C(=O)N[C@@H](CC(=O)O)C(=O)N[C@H](C(=O)N1[C@@H](c2ccccc2)CC[C@H]1C(N)=O)C(C)CC (stereo partly drawn) ({NH(2-Me-phenyl)-CO}-[X1][Nle]D[Ile(3ξ)][Pro(5R-Ph)]-NH2)", "nM", 38),
    ("CCCC[C@H](NC(=O)Cc1ccc(NC(=O)Nc2ccccc2C)cc1)C(=O)N[C@@H](CC(=O)O)C(=O)N[C@H](C(=O)N1CCCC[C@H]1C(N)=O)C(C)CC (stereo not given in full)", "nM", 1.4),
]

a = CCCC[C@H](NC(=O)Cc1ccc(NC(=O)Nc2ccccc2C)cc1)C(=O)N[C@@H](CC(=O)O)C(=O)N[C@H](C(=O)N1Cc2ccccc2C[C@@H]1C(N)=O)C(C)CC (stereo not given in full)
b = CCCC[C@H](NC(=O)Cc1ccc(NC(=O)Nc2ccccc2C)cc1)C(=O)N[C@@H](CC(=O)O)C(=O)N[C@H](C(=O)N1CCC[C@H]1C(N)=O)C(C)CC (stereo not given in full)
Between a and b , whose measured IC50 reads higher? Mark your selection by writing its label.
a
(a: 3.2 nM, b: 1.4 nM)

Recorded values, source BindingDB's records for doi:10.1002/bip.20588.
